Source: the METLIN SMRT retention time set (Domingo-Almenara et al. 2019)

- test: gradient 5% acetonitrile 3 min, to 50% in 2 min, to 85% in 15 min, held 3 min, 100 µL/min
- condition.notes: column: Zorbax Extend-C18 2.1 x 50 mm; eluents: water / acetonitrile, 0.1% formic acid
Lab note: compare RP-LC retention time with 900 s, writing Satisfied if less and Not satisfied if equal or more.

compound	category
Cc1ccc(NC(=O)CN2C(=O)CCc3cc(S(=O)(=O)N4CCCCC4C)ccc32)cc1N(C)C (centres undefined)	Satisfied
COc1cc(=O)n2c(c1C(=O)NC1CCCCCC1)CCCC2	Satisfied
CCOC(=O)N1CCC(NC(=O)C2(c3ccc(F)cc3)CC2)CC1	Satisfied

Consider the compound `CCOc1ccccc1N1CCN(C(=O)CSc2nccnc2Oc2ccccc2C)CC1` . Is its RP-LC retention time strictly less than 900 s?
Not satisfied

Lab log: compare recorded RP-LC retention time with 900 s; is it strictly lower for `CN(C)S(=O)(=O)c1cccc(-c2nnc(-c3ccccc3Cl)o2)c1` ?
Not satisfied

Determine whether this compound shows RP-LC retention time lower than 900 s (ties excluded): COc1cc(C(C[N+](=O)[O-])c2c(-c3ccccc3)[nH]c3ccccc23)cc(OC)c1OC (centres undefined)
Not satisfied

Take the compound O=C(Cc1noc2ccccc12)NCC1CCS(=O)(=O)C1 (centres undefined) and say whether its RP-LC retention time is less than 900 s.
Satisfied

# strict comparison: is reported RP-LC retention time < 900 s? input = CC(C)n1c(CC2CCN(C(=O)Nc3ccccc3Cl)C2)nc2cccnc21 (centres undefined)
Satisfied

In the record for `O=C(c1ccccc1N1C(=O)c2cccc3cccc(c23)C1=O)N1CCOCC1` , is RP-LC retention time less than 900 s?
Satisfied

Please indicate whether the reported RP-LC retention time of `Cc1ccc(S(=O)(=O)Nc2ccc(-c3cn4ccccc4n3)cc2)cc1[N+](=O)[O-]` is strictly below 900 s.
Satisfied

RP-LC retention time under 900 s? Item: `O=C(Cn1nc(Cc2cccnc2)c2ccccc2c1=O)Nc1ccc(Cl)cn1`
Satisfied

RP-LC retention time under 900 s? Item: `Cc1cc(NC(=O)NCCn2nnc3cc(C(=O)N4CCCC4)ccc32)ccc1Br`
Satisfied

Is it true that RP-LC retention time reported for `CCn1cc(CCNC(=O)Nc2ccc(Br)cc2)c2cccnc21` is less than 900 s?
Satisfied

Hello, is RP-LC retention time of the following compound strictly smaller than 900 s? `O=C(Nc1ccc2c(c1)OCO2)N1CCN(c2nc3cccnc3n(Cc3ccccc3)c2=O)CC1`
Not satisfied

* * *

- test: gradient 5% acetonitrile 3 min, to 50% in 2 min, to 85% in 15 min, held 3 min, 100 µL/min
- condition.notes: column: Zorbax Extend-C18 2.1 x 50 mm; eluents: water / acetonitrile, 0.1% formic acid
Note to self: values exactly at 700 s are MET. So RP-LC retention time at or above 700 s is MET, below is NOT MET.

molecule	category
CCCNC(=O)C1CC(=O)N(c2n[nH]c3cccc(F)c23)C1 (stereo not given)	NOT MET

Decide: RP-LC retention time of `COCCOc1ccc2c(n1)CCN(C(=O)NCCC(C)C)C2` >= 700 s?
MET

Given `Cc1cc(C)n2nc(SCC(=O)Nc3ccc(F)cc3)nc2n1` , state whether its RP-LC retention time is at least 700 s.
MET

Check this molecule for RP-LC retention time at or above 700 s: CN1C(=O)c2cc(C(=O)NCCC3=CCCCC3)nn2CC1(C)C(=O)NCc1ccc(F)cc1 (stereo not given)
MET

Kindly determine if RP-LC retention time recorded for `CSc1ccc(-c2noc(-c3nn(-c4cccc(Br)c4)ccc3=O)n2)cc1` is above or exactly 700 s.
MET

* * *

- test: gradient 5% acetonitrile 3 min, to 50% in 2 min, to 85% in 15 min, held 3 min, 100 µL/min
- condition.notes: column: Zorbax Extend-C18 2.1 x 50 mm; eluents: water / acetonitrile, 0.1% formic acid
Lab note: cut-off is 700 s. Strictly less in RP-LC retention time is Fulfilled. Exactly 700 s or more is Not fulfilled.

Consider the following illustrative entries.
compound	category
Cc1cccc(CNC(=O)C2CCCN2S(=O)(=O)c2cc3c(cc2Cl)NC(=O)CO3)c1 (stereo not given)	Not fulfilled
O=C(Nc1ccc(C2(C(=O)NCc3ccc(F)cc3Cl)CCC2)cc1)C1CC1	Not fulfilled
CS(=O)(=O)N1CCC(C(=O)NCC2(CO)CC2)CC1	Fulfilled
CCOC(=O)CNC(=O)N1CCN(Cc2nc3cccnc3n2-c2ccc(CC)cc2)CC1	Fulfilled

Turning to the following compound.
Decide: RP-LC retention time of `COc1cccc2cc(-c3nnc(NC(=O)c4ccc5ncsc5c4)o3)oc12` strictly below 700 s?
Not fulfilled

* * *

- test: gradient 5% acetonitrile 3 min, to 50% in 2 min, to 85% in 15 min, held 3 min, 100 µL/min
- condition.notes: column: Zorbax Extend-C18 2.1 x 50 mm; eluents: water / acetonitrile, 0.1% formic acid
Recorded measurements of RP-LC retention time, one per entry
Number in s, nothing else.

Completed entries (count: 5):
compound	RP-LC retention time [s]
CCOC(=O)Cn1c(C2CC(=O)N(c3ccccc3Cl)C2)nc2ccccc21 (centres undefined)	761
CCCCn1cc(S(=O)(=O)NCc2ccc(C)cc2)c2cccnc21	984
COc1ccc(-c2noc(C3CC(=O)N(c4cccc(Cl)c4)C3)n2)cc1 (centres undefined)	998
Cc1sc(C)c(S(=O)(=O)NCc2ccco2)c1-c1cc(C(F)(F)F)on1	1060
COCCC(=O)N1CCCN(C2=NS(=O)(=O)C(c3ccccc3)=C2C)CC1	669

Kindly note the recorded RP-LC retention time for COc1ccc(CNC(=O)C2CCCN(c3nccnc3Sc3ccc(C)cc3)C2)c(OC)c1 (centres undefined) , which is 792

Noted for `COc1cccc(CNC(=O)Cn2ccc3ccc(-c4nnc(C)o4)cc32)c1` : its RP-LC retention time reads 756

Sure, the documented RP-LC retention time for `CCOCCCNC(=O)N1[C@H]2CC[C@@H]1c1cnc(-c3ccc(F)cc3)nc1C2` is 800

Value of RP-LC retention time reported for the compound `COc1ccccc1Cc1noc(C2CN(C(=O)c3cncc(Br)c3)C2)n1` is 777

* * *

- test: gradient 5% acetonitrile 3 min, to 50% in 2 min, to 85% in 15 min, held 3 min, 100 µL/min
- condition.notes: column: Zorbax Extend-C18 2.1 x 50 mm; eluents: water / acetonitrile, 0.1% formic acid
Could you label it label 1 if measured RP-LC retention time is 800 s or higher, and label 0 otherwise?

molecule	category
O=C(Cc1ccc(Br)cc1)N1CCN(C(=O)c2cc(-c3cccnc3)n[nH]2)CC1	label 0
COCCN(Cc1ccc(Cl)cc1)Cc1cc(=O)c2cccc(F)c2[nH]1	label 1
O=C(NC1CCN(c2cc(-c3ccccc3)[nH]n2)C1)c1cc2ccccc2[nH]1 (stereo not given)	label 0
CCCCn1cc(S(=O)(=O)N2CCN(c3ccccc3F)CC2)c2cccnc21	label 1

// inclusive: RP-LC retention time at least 800 s? input: Cc1sc(-c2noc(C3CCC3)n2)cc1S(=O)(=O)N1CCC(C(=O)NCC2CCCO2)CC1 (stereo not given)
label 1

Quick check: does `Cc1cccc2c1CCN(C(=O)c1ccco1)[C@@H]2C` have RP-LC retention time greater than or equal to 800 s?
label 1

Is the recorded value of RP-LC retention time equal to or greater than 800 s for this molecule? `COc1cccc(N2CCn3c2nc2c3c(=O)n(CC(=O)O)c(=O)n2C)c1`
label 0

Exam item: decide whether the reported RP-LC retention time for `NS(=O)(=O)c1ccc(CCNC(=O)c2ccc(-n3cnnn3)cc2)cc1` is at least 800 s.
label 0

Confirm if RP-LC retention time reported for the molecule `Cc1ccc(-c2nc3ncccn3c2Nc2cc(C)ccc2C)cc1` is 800 s or above.
label 1

Please indicate if the recorded RP-LC retention time for CCc1ccc(CN2C(=O)c3ccccc3C2C(=O)NCC2CCCO2)cc1 (stereo not given) meets or exceeds 800 s.
label 1

Dear colleague, could you confirm whether `COc1cccc(CNC(=O)c2cn3cc(C)ccc3n2)c1OC` has RP-LC retention time at or above 800 s?
label 0

* * *

- test: gradient 5% acetonitrile 3 min, to 50% in 2 min, to 85% in 15 min, held 3 min, 100 µL/min
- condition.notes: column: Zorbax Extend-C18 2.1 x 50 mm; eluents: water / acetonitrile, 0.1% formic acid
test.readout: RP-LC retention time (s)
Lab book: enter the figure in s, no units written.

Illustrative cases are given below, each with its answer.
molecule	display.unit	RP-LC retention time
Cc1cc(C)c2[nH]c3c(c(=O)c2c1)CN(CC(=O)Nc1ccc2c(c1)OCO2)CC3	s	626
Cc1ccc(-c2cc3c(=O)n(Cc4nc(-c5ccccc5)no4)ncn3n2)c(C)c1	s	1200
CCOc1ccc(CCNc2nc(-c3ccc(OC)c(OC)c3)no2)cc1	s	967
CCN1C(=O)c2c(C(=O)NCCc3ccc(C)cc3)ncn2CC1(C)C(=O)NC1CCCC1 (stereo not given)	s	779

For record Cn1nc(C(=O)N2CCCC(C(=O)NC3CC3)C2)c2c1CCN(C(=O)COc1ccc(F)cc1)C2 (stereo not given) the listed RP-LC retention time is 674
